Target or test system: T1, TNFR1 (Homo sapiens, UniProt P19438)
T1 chain: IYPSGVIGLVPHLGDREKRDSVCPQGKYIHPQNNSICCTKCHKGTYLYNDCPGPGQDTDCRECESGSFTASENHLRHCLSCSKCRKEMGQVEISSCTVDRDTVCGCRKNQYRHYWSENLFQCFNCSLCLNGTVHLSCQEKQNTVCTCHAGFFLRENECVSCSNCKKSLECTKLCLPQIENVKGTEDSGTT
Procedure details: yeast display SC50
apparent Kd (screen) listing for selected binders.

{"Binder": "T57E (designed binder) SMEEEVEKAAKEYEKKKKEAIEKHLEKLKAKDKEAAERFLKELEEAAKEYAKDEAKEMSEEEAKRRAKKYKEKVLLSELSEEEQKEIKEAEEKLVRTILKYVEEAAK", "apparent Kd (screen) / nM": 3}
{"Binder": "S77V (designed binder) SMEEEVEKAAKEYEKKKKEAIEKHLEKLKAKDKEAAERFLKELEEAAKEYAKDEAKTMSEEEAKRRAKKYKEKVLLVELSEEEQKEIKEAEEKLVRTILKYVEEAAK", "apparent Kd (screen) / nM": 2.73}
